- system: IKZF2 (Homo sapiens, UniProt Q96SW2+Q9UKS7)
- Construct: expressed in transfected cells
- Sequence (Q9UKS7 1-500 isoform Q9UKS7-2): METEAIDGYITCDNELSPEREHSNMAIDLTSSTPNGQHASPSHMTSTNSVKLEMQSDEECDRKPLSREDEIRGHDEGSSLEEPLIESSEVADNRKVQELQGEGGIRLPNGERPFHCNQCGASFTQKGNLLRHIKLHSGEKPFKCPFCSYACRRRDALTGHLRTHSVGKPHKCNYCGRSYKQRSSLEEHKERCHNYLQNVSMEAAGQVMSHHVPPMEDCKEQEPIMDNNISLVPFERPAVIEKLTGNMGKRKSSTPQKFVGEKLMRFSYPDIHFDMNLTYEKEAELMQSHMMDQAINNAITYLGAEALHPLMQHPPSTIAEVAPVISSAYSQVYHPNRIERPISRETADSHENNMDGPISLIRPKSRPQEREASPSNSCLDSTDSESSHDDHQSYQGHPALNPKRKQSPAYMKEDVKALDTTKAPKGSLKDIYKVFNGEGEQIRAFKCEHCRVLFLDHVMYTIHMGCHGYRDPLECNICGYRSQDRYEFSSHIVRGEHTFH
- Sequence (Q96SW2 whole entry): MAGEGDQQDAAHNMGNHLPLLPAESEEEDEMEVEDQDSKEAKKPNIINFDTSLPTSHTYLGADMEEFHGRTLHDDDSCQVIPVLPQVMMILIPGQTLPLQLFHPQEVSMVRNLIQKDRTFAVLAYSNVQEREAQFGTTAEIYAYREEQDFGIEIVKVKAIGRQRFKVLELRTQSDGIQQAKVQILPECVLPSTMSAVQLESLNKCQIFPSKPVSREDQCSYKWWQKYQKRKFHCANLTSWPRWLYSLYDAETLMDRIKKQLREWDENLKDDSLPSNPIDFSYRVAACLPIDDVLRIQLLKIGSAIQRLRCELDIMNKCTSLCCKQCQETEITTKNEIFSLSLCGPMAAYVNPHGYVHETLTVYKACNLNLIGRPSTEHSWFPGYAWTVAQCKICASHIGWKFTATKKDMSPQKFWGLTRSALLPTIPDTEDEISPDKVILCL
- Sequence (Q16531 whole entry partner): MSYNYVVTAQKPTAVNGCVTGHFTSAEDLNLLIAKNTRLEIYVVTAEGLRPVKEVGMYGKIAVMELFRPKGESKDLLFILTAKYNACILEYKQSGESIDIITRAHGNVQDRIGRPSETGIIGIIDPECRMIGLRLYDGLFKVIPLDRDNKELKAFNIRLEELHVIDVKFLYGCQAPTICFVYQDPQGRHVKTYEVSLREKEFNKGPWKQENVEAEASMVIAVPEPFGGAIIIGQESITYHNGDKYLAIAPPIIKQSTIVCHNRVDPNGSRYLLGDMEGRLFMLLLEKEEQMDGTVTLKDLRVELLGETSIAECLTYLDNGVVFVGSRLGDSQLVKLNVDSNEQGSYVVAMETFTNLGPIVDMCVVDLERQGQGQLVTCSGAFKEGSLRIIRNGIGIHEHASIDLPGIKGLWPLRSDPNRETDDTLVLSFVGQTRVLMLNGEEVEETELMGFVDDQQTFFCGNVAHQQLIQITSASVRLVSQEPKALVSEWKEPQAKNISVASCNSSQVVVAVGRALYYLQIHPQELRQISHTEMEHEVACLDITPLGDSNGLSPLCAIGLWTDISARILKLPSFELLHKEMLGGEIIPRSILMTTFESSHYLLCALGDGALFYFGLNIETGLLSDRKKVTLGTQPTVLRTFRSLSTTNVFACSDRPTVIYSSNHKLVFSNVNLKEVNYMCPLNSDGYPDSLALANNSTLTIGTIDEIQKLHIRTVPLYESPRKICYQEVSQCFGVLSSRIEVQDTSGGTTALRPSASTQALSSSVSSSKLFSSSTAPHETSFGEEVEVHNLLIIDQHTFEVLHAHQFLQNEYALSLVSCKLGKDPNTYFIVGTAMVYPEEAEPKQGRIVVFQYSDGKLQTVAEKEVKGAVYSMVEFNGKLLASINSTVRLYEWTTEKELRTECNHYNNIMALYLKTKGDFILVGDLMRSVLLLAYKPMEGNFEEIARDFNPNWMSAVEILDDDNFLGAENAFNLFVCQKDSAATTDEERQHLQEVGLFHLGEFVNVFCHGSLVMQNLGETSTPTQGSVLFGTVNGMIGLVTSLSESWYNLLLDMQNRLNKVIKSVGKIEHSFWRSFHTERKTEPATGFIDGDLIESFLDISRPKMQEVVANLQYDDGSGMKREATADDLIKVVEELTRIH
- assay notes: HiBiT protein tagging assay, in vitro IKZF2 degradation (HEK293)
- Format: cell-based
- applied conditions: IKZF2-HiBiT reporter Flp-In T-REx HEK293 cells, doxycycline-induced, compound overnight (18-24 hr), normalized to DMSO control; read-out: IKZF2 Dmax (maximum degradation at the highest concentration tested)
observation type: Dmax (%)

CC(=O)NC1CCN(Cc2ccccc2)CC1Oc1ccc2c(c1)CN(C1CCC(=O)NC1=O)C2=O (stereo not drawn)    69
O=C1CCC(N2Cc3cc(O[C@H]4CN(Cc5ccccc5)CC[C@@H]4NCc4ccc(F)cc4)ccc3C2=O)C(=O)N1 (mixture of isomers)    89
CCN[C@H]1CCN(Cc2ccc(F)cc2)C[C@@H]1Oc1ccc2c(c1)CN(C1CCC(=O)NC1=O)C2=O (stereo partly drawn)    98

----------
- system: IKZF2 (Homo sapiens, UniProt Q96SW2+Q9UKS7)
- Construct: expressed in transfected cells
- assay notes: HiBiT protein tagging assay, in vitro IKZF2 degradation (HEK293)
- Format: cell-based
- applied conditions: IKZF2-HiBiT reporter Flp-In T-REx HEK293 cells, doxycycline-induced, compound overnight (18-24 hr), normalized to DMSO control; read-out: IKZF2 Dmax (maximum degradation at the highest concentration tested)
The entries below are paired with their reported Dmax.
observation type: Dmax

O=C1CCC(N2Cc3cc(O[C@H]4CN(Cc5ccccc5F)CC[C@@H]4NCc4ccccc4)ccc3C2=O)C(=O)N1 (mixture of isomers) [Example 17]    91%
CCNC1CCN(Cc2ccc(F)cc2)CC1Oc1ccc2c(c1)CN(C1CCC(=O)NC1=O)C2=O (racemic) [Example 27]    92%
O=C1CCC(N2Cc3cc(O[C@H]4CN(Cc5cc(F)ccc5F)CC[C@@H]4NCc4ccccc4)ccc3C2=O)C(=O)N1 (mixture of isomers) [Example 23]    88%
